Where do the numbers come from? From PubChem BioAssay (NCI).

Provide the recorded growth for the entries that follow.
# System: CCRF-CEM leukemia
# procedure_details: NCI-60 one-dose screen, 48 h (100 = growth as untreated, 0 = no growth, -100 = all killed)
# condition_set: 10 µM
This is part of a sample that, as a whole, favours compounds with a hit. Of some 83,000 tested, about 20% had one in any assay.
One number for each entry, in %.

Some compounds with recorded growth:
>  <smiles_input>
O=C1CC(=O)N(C(=O)c2nn(-c3ccc(Cl)cc3)cc2O)N1

>  <units_of_measure>
%

>  <observed>
5.93

$$$$
>  <smiles_input>
C[C@@H](O)[C@H]1C(=O)N2C(C(=O)O)=C(SCCN=CN)C[C@H]12

>  <units_of_measure>
%

>  <observed>
4.2

$$$$

# input for lookup
-- ask Entry `COc1ccc(-c2nn(-c3cccc(Cl)c3)cc2-c2cc(-c3ccccc3)nc(N)n2)cc1` : reported growth = ?
-- reply 41.1

====

Exercise: state measured growth for each of the compounds provided.
# Test system: UACC-257 melanoma
# procedure_details: NCI-60 one-dose screen, 48 h (100 = growth as untreated, 0 = no growth, -100 = all killed)
# condition_set: 10 µM
Compounds without any hit were thinned out: in the full panel of roughly 83,000, 20% have a hit.
Give bare numbers, in %.

>  <compound>
O=C(Nc1ccc2c(O)cc(S(=O)(=O)O)cc2c1)c1ccc([N+](=O)[O-])cc1

>  <test_system>
UACC-257 melanoma

>  <assay_metric>
growth

>  <observed>
74.6

$$$$
>  <compound>
NC(=O)c1cccc(-n2ccc3cc(NC(=O)Nc4ccc(Cl)c(C(F)(F)F)c4)ccc32)n1

>  <test_system>
UACC-257 melanoma

>  <assay_metric>
growth

>  <observed>
93.3

$$$$
>  <compound>
CC(=O)[C@H]1CC[C@]2(C)[C@@H]1CC[C@@H]1[C@@]3(C)CC(CCC#N)(CCC#N)C(=O)C(C)(C)[C@@H]3CC[C@]12C

>  <test_system>
UACC-257 melanoma

>  <assay_metric>
growth

>  <observed>
107

$$$$
>  <compound>
CCCN1CN2C(=O)N3CN(CCC)CN4C(=S)N(C1)C2C34 (configuration not stated)

>  <test_system>
UACC-257 melanoma

>  <assay_metric>
growth

>  <observed>
92.9

$$$$
>  <compound>
CC(C1=C(CN(C(=O)Cc2cn(-c3ccccc3)nc2-c2ccc(Cl)cc2)C(C)C)Cc2ccccc21)c1ccccn1 (configuration not stated)

>  <test_system>
UACC-257 melanoma

>  <assay_metric>
growth

>  <observed>
67.3

$$$$

Batch lookup, growth per entry.
1. CCOC(=O)c1cc(C(=O)c2cc(OC)cc(OC)c2)n2nc(C)ccc12
2. O=C1CC(=O)N(C(=O)c2nn(-c3ccc(Cl)cc3)cc2O)N1

-- reply
1: 59.5; 2: 66.1

====

# Test system: OVCAR-3 ovarian
# procedure_details: NCI-60 one-dose screen, 48 h (100 = growth as untreated, 0 = no growth, -100 = all killed)
# condition_set: 10 µM
Compounds without any hit were thinned out: in the full panel of roughly 83,000, 20% have a hit.
Criterion: growth strictly under 50%. Met: 1 (yes). Not met: 0 (no).

Example entries and their recorded answers appear below.
>  <compound>
COc1cccc(C2C(C#N)=C(N)Oc3cc(N)ccc32)c1 (centres undefined)

>  <test_system>
OVCAR-3 ovarian

>  <class_name>
1 (yes)

$$$$
>  <compound>
CN(C)CCCOc1ccc(NC2=C(Cl)C(=O)C(Nc3ccc(OCCCN(C)C)cc3)=C(Cl)C2=O)cc1

>  <test_system>
OVCAR-3 ovarian

>  <class_name>
1 (yes)

$$$$
>  <compound>
O=C(N/N=C/c1ccc([N+](=O)[O-])cc1)c1ccccc1Nc1cccc(C(F)(F)F)c1

>  <test_system>
OVCAR-3 ovarian

>  <class_name>
0 (no)

$$$$
>  <compound>
O=C(Nc1cc([N+](=O)[O-])c2[nH]c(=O)c3ccccc3c2c1)C(F)(F)F

>  <test_system>
OVCAR-3 ovarian

>  <class_name>
0 (no)

$$$$
>  <compound>
C[N+]1(CCCCC[N+]2(C)CCCC2)CCCC1

>  <test_system>
OVCAR-3 ovarian

>  <class_name>
0 (no)

$$$$

Turning to the following compound.
-- ask State whether 50% exceeds growth recorded for `COc1cc2c(Nc3ccc(-c4ccc(N)cc4)cc3)ncnc2c(OC)c1OC` .
-- reply 1 (yes)

====

# Test system: HCT-15 colon
# procedure_details: NCI-60 one-dose screen, 48 h (100 = growth as untreated, 0 = no growth, -100 = all killed)
# condition_set: 10 µM
The panel holds about 83,000 compounds, 20% with a hit somewhere; the sample as a whole holds those more often.
assay_metric: growth (%)
Give bare numbers, in %.

Some solved cases for reference:
>  <compound>
COc1cc(/C=C/c2cc(/C=C/c3ccc(O)c(OC)c3)n(C(=O)Nc3ccc(C)cc3)n2)ccc1O

>  <units_of_measure>
%

>  <observed>
15.2

$$$$
>  <compound>
O=C(COc1cccc(/C=C2\CSc3ccc(Cl)cc3C2=O)c1)c1ccc(Cl)cc1

>  <units_of_measure>
%

>  <observed>
47.9

$$$$

Items follow; give growth for each.
1. O=c1[nH]c(=O)n(C2C[C@H](O)[C@@H](CO)O2)cc1C(F)(F)F (stereo partly specified)
2. CC(C)(C)OC(=O)CN1CCc2c(sc3ncnc(N/N=C/c4ccccc4Br)c23)C1
3. CN(C)CCOc1cccc(NC2=C(Cl)C(=O)C(Nc3cccc(OCCN(C)C)c3)=C(Cl)C2=O)c1
4. S=C1N(c2ccccc2)CN(C2CCCCC2)CN1c1ccccc1
5. COc1cc(-c2nn(-c3ccc(NC(=O)NCCNS(=O)(=O)c4ccc(F)cc4)cc3)cc2-c2ccncc2)ccc1Cl
6. Clc1ccc(Cc2ccncc2)cc1

-- reply
1. 107
2. 37
3. -78.6
4. 95.3
5. 47.7
6. 104

Hey, quick one: what's growth for each of these?
1. COc1cccc(C2C(C#N)=C(N)Oc3cc(N)ccc32)c1 (stereo unspecified)
2. NS(=O)(=O)Oc1ccc(-c2ccc3sccc3c2)cc1

-- reply
[40.3, 103]

Each of the following entries comes with a recorded value; kindly state growth for each.
1. CCCc1nc(C(C)(C)O)c(C(=O)O)n1Cc1ccc(-c2ccccc2-c2nn[nH]n2)cc1
2. CC(=O)[C@H]1CC[C@]2(C)[C@@H]1CC[C@@H]1[C@@]3(C)CC(CCC#N)(CCC#N)C(=O)C(C)(C)[C@@H]3CC[C@]12C
3. O=C(CNc1nnc(-c2cccnc2SCc2ccccc2)s1)Nc1nc(Cl)cc(Cl)n1
4. COc1cc(/C=C/c2cc(/C=C/c3ccc(O)c(OC)c3)nc(N)n2)ccc1O
5. CCOC(=O)c1cc(C(=O)c2cc(OC)cc(OC)c2)n2ncc3ccccc3c12

-- reply
[101, 100, 108, 29.5, 29.8]

====

# System: NCI-H23 lung
# procedure_details: NCI-60 one-dose screen, 48 h
# condition_set: 10 µM
This is part of a sample that, as a whole, favours compounds with a hit. Of some 83,000 tested, about 20% had one in any assay. Activity calls are given as the source filed them. The calls were made as follows: active = growth percent below 10; inactive = the rest.
In this exercise, the only acceptable responses are yes = active, no = inactive

Sample answers from the record:
>  <molecule>
CCc1cc(Cl)c(OC)c(C(=O)NCC2CCCN2CC)c1O (centres undefined)

>  <class_name>
no

$$$$
>  <molecule>
CNC(=O)c1c(I)c(NC(C)=O)c(I)c(C(=O)O)c1I

>  <class_name>
no

$$$$
>  <molecule>
O=C(O)Cc1ccc(O)c(O)c1

>  <class_name>
no

$$$$
>  <molecule>
CCN(CC)CCOC(=O)c1cc(OCc2ccccc2)c(OCc2ccccc2)c(OCc2ccccc2)c1

>  <class_name>
no

$$$$

-- ask For this molecule, state the assay outcome: CCCCCC(=O)O[C@]1(C(C)=O)CCC2C3CCC4=CC(=O)CC[C@]4(C)C3CC[C@@]21C (some centres undefined)
-- reply no

-- ask // return assay outcome for `CCn1c(SCc2ccc(C)cc2)nnc1-c1nn(-c2ccc(Cl)cc2Cl)c(-c2ccc(Cl)cc2)c1C`
-- reply yes

-- ask What did this assay record as the result for `CCCCC/C=C/C/C=C/CCCCCCCC1=NC(C)(C)CN1C(C)C` ?
-- reply no

-- ask # outcome recorded in this test, key = `CC(C)(C)OC(=O)CN1CCc2c(sc3ncnc(N/N=C/c4cccc5ccccc45)c23)C1`
-- reply no

-- ask How did this test come out for `COc1cc(C(=O)/C(C)=C/c2c[nH]c3ccccc23)cc(OC)c1OC` ?
-- reply no

====

# Tested on: SF-295 CNS
# procedure_details: NCI-60 one-dose screen, 48 h (100 = growth as untreated, 0 = no growth, -100 = all killed)
# condition_set: 10 µM
This is part of a sample that, as a whole, favours compounds with a hit. Of some 83,000 tested, about 20% had one in any assay.
Record form. Attribute: growth. Fill in for each entry.
Answers are plain numbers, in %.

>  <molecule>
CC(=O)Nc1ccc(S(=O)(=O)c2ccnc3cc(Cl)ccc23)cc1

>  <units_of_measure>
%

>  <growth>
97.2

$$$$

For every item below, please supply its growth.
1. O=C(COc1cccc(/C=C2\CSc3ccc(Cl)cc3C2=O)c1)c1ccc(Cl)cc1
2. CCCCCOC(=O)Nc1nc(=O)n(C2O[C@H](C)[C@@H](O)[C@H]2O)cc1F (stereo partly specified)
3. Cc1ccc(NCCN(C)CC(C)O)c2c(=O)c3ccc(Cl)cc3sc12 (stereo unspecified)

-- reply
81.2
98.1
82.6

Please give growth for each item listed below.
1. CC(=O)Oc1cc(OC(C)=O)c2ccccc2c1OC(C)=O
2. COc1cc2c(cc1OC)C(C(CCCCCC(CCC(C)C)C1NCCc3cc(OC)c(OC)cc31)CCC(C)C)NCC2 (stereo unspecified)
3. OC(CNc1ccnc2cc(Cl)ccc12)CNC1CCCCC1 (stereo unspecified)
4. COc1cc(-c2nn(-c3cccc(NC(=O)CN4CCOCC4)c3)cc2-c2cccnc2)ccc1Cl
5. CC[C@H]1OC(=O)[C@H](C)[C@@H](O[C@H]2C[C@@](C)(OC)[C@@H](O)[C@H](C)O2)[C@H](C)[C@@H](O[C@@H]2O[C@H](C)C[C@H](N(C)C)[C@H]2O)[C@](C)(OC)C/C(C)=C2/O[C@@]1(C)C=C2C
6. Cc1ccc(NC(=S)NNC(=S)Nc2ccc(C)cc2)cc1
7. c1cncc(-c2csc(-c3c[nH]c4ccccc34)n2)c1

-- reply
1. 103
2. -77.5
3. 83.5
4. 76.8
5. 95.5
6. 30
7. 92.6
